- assaySystem: Neurogenic locus notch homolog protein 3 (Homo sapiens)
- protocolNotes: NOTCH3 binders on small-molecule microarray, primary screen, biochemical, 635/667 nm fluorescence (AID 1096)
- recordedConditions: NOTCH3 binding, 635 nm fluorescence, higher = more signal
Recorded measurements of composite z-score, one per entry

# value of composite z-score, Neurogenic locus notch homolog protein 3 (Homo sapiens), item COC(=O)CCCCCCC(=O)Nc1ccc(NC(=O)CCCC[P+](c2ccccc2)(c2ccccc2)c2ccccc2)cc1 = 0.973

composite z-score of NC(=O)NCC#Cc1ccc2c(c1)[C@]1(C(=O)N2)[C@H](C(=O)NC[C@H](O)c2ccccc2)[C@H]2C(=O)O[C@H](c3ccccc3)[C@H](c3ccccc3)N2[C@@H]1c1ccc(OCCO)cc1 , assay on Neurogenic locus notch homolog protein 3 (Homo sapiens), is 0.0556

Record for C=C(/C(=C/C[C@H](OC(C)=O)c1ccccc1OCCO)c1cc(C(=O)OC)ccc1OC)C(C)C under target or system Neurogenic locus notch homolog protein 3 (Homo sapiens): composite z-score reported as -0.189

GET /values?item= NCCCCCCNC(=O)[C@@H]1C[C@@H]2C(=O)N[C@@H](CCCCN)C(=O)N2[C@@H]1c1cccc(OCCO)c1 &system= Neurogenic locus notch homolog protein 3 (Homo sapiens) returns composite z-score: 0.362
